Test system: MUC5AC promoters
Test: MUC5AC promoter luciferase reporter assay in H292 cells
Assay type: cell-based, human
Conditions: Table 7, MUC5AC promoter luciferase reporter, 10 μM, TNF-α 20 ng/mL
Examples of molecules with documented Inhibition rate (%) follow.

>  <molecule>
COc1cc([C@H]2OC[C@H]3[C@@H]2CO[C@@H]3c2cc(OC)c(OC)c(OC)c2)cc(OC)c1OC

>  <resultUnits>
%

>  <Inhibition rate (%)>
56.27

$$$$
>  <molecule>
COc1ccc([C@H]2OC[C@H]3[C@@H]2CO[C@H]3c2cc(OC)c(OC)c(OC)c2)cc1OC [Compound S4, epimagnolin]

>  <resultUnits>
%

>  <Inhibition rate (%)>
63.2

$$$$
>  <molecule>
COc1ccc([C@H]2OC[C@H]3[C@@H]2CO[C@@H]3c2ccc(OC)c(OC)c2)cc1OC

>  <resultUnits>
%

>  <Inhibition rate (%)>
55.74

$$$$
>  <molecule>
COc1ccc([C@H]2OC[C@H]3[C@@H]2CO[C@@H]3c2cc(OC)c(OC)c(OC)c2)cc1OC

>  <resultUnits>
%

>  <Inhibition rate (%)>
55.2

$$$$

----------
System: MUC5AC protein
Assay: Inhibition of MUC5AC protein production (immunoassay) by the compounds
Format: cell-based, human
Details: MUC5AC secretion, 5 μM, TNF-α 20 ng/mL
quantityKind: Inhibition rate (%)

>  <compound>
COc1ccc([C@H]2OC[C@H]3[C@@H]2CO[C@@H]3c2cc(OC)c(OC)c(OC)c2)cc1OC

>  <resultUnits>
%

>  <value>
18.83

$$$$
>  <compound>
COc1ccc([C@H]2OC[C@H]3[C@@H]2CO[C@@H]3c2ccc3c(c2)OCO3)cc1OC [Compound S5, dimethoxyaschantin]

>  <resultUnits>
%

>  <value>
10.12

$$$$
>  <compound>
COc1ccc([C@H]2OC[C@H]3[C@@H]2CO[C@@H]3c2ccc(OC)c(OC)c2)cc1OC

>  <resultUnits>
%

>  <value>
26.36

$$$$
>  <compound>
COc1ccc([C@@H]2OC[C@H]3[C@@H]2CO[C@@H]3c2ccc3c(c2)OCO3)cc1OC

>  <resultUnits>
%

>  <value>
1.69

$$$$
>  <compound>
COc1cc([C@H]2OC[C@H]3[C@@H]2CO[C@@H]3c2ccc3c(c2)OCO3)cc(OC)c1OC [Compound S6, aschantin]

>  <resultUnits>
%

>  <value>
4.19

$$$$
>  <compound>
COc1ccc([C@H]2OC[C@H]3[C@@H]2CO[C@H]3c2cc(OC)c(OC)c(OC)c2)cc1OC [Compound S4, epimagnolin]

>  <resultUnits>
%

>  <value>
25.76

$$$$
>  <compound>
COc1cc([C@H]2OC[C@H]3[C@@H]2CO[C@@H]3c2cc(OC)c(OC)c(OC)c2)cc(OC)c1OC

>  <resultUnits>
%

>  <value>
29.38

$$$$

----------
Tested on: inflammatory cells in the bronchoalveolar lavage fluid
Assay: Inflammatory cells in bronchoalveolar lavage fluid of the COPD mouse model (cigarette smoke + LPS)
Type: in vivo, C57BL/6N mice
Details: 15 mg/kg p.o., BALF, vs COPD-induced group
Examples of molecules with documented Inhibition rate of inflammatory cell infiltration (%) Total inflammatory cells follow.
quantityKind: Inhibition rate of inflammatory cell infiltration (%) Total inflammatory cells

>  <molecule>
COc1cc([C@H]2OC[C@H]3[C@@H]2CO[C@@H]3c2cc(OC)c(OC)c(OC)c2)cc(OC)c1OC

>  <value>
23.3

$$$$
>  <molecule>
COc1ccc([C@H]2OC[C@H]3[C@@H]2CO[C@@H]3c2ccc3c(c2)OCO3)cc1OC [Compound S5, dimethoxyaschantin]

>  <value>
33.0

$$$$
>  <molecule>
COc1ccc([C@H]2OC[C@H]3[C@@H]2CO[C@@H]3c2cc(OC)c(OC)c(OC)c2)cc1OC

>  <value>
44.7

$$$$

----------
Tested on: reactive oxygen species
Test: Production of active oxygen species in BALF of the COPD model (DCF-DA)
Format: in vivo, C57BL/6N mice
Conditions: 15 mg/kg p.o., vs COPD-induced group

>  <compound>
COc1ccc([C@@H]2OC[C@H]3[C@@H]2CO[C@@H]3c2ccc3c(c2)OCO3)cc1OC [Compound S7, fargesin]

>  <experimentalSystem>
reactive oxygen species

>  <Active oxygen inhibition rate (%)>
47.5 ± 5.2%

$$$$
>  <compound>
COc1ccc([C@H]2OC[C@H]3[C@@H]2CO[C@@H]3c2cc(OC)c(OC)c(OC)c2)cc1OC [Compound S2, magnolin]

>  <experimentalSystem>
reactive oxygen species

>  <Active oxygen inhibition rate (%)>
21.8 ± 4.4%

$$$$
>  <compound>
COc1ccc([C@H]2OC[C@H]3[C@@H]2CO[C@@H]3c2ccc3c(c2)OCO3)cc1OC [Compound S5, dimethoxyaschantin]

>  <experimentalSystem>
reactive oxygen species

>  <Active oxygen inhibition rate (%)>
31.3 ± 2.5%

$$$$
>  <compound>
COc1ccc([C@H]2OC[C@H]3[C@@H]2CO[C@@H]3c2ccc(OC)c(OC)c2)cc1OC [Compound S1, dimethylpinoresinol]

>  <experimentalSystem>
reactive oxygen species

>  <Active oxygen inhibition rate (%)>
17.9 ± 5.1%

$$$$

----------
Examples of molecules with documented Viability of H292 cells (%, average ± deviation) follow.
Tested on: H292 cells
Assay: Cytotoxicity (CCK-8 cell viability) of the compounds of Magnoliae flos in H292 cells
Format: cell-based, human
Details: 2.5 μM, 24 h, vs 0.2% DMSO control = 100%
quantityKind: Viability of H292 cells (%, average ± deviation) (%)

>  <molecule>
COc1ccc([C@H]2OC[C@H]3[C@@H]2CO[C@H]3c2cc(OC)c(OC)c(OC)c2)cc1OC [Compound S4, epimagnolin]

>  <value>
99.81

$$$$
>  <molecule>
COc1ccc([C@H]2OC[C@H]3[C@@H]2CO[C@@H]3c2ccc(OC)c(OC)c2)cc1OC [Compound S1, dimethylpinoresinol]

>  <value>
121.27

$$$$
>  <molecule>
COc1cc([C@H]2OC[C@H]3[C@@H]2CO[C@@H]3c2cc(OC)c(OC)c(OC)c2)cc(OC)c1OC [Compound S3, dimethylliroresinol]

>  <value>
100.55

$$$$
>  <molecule>
COc1ccc([C@H]2OC[C@H]3[C@@H]2CO[C@@H]3c2cc(OC)c(OC)c(OC)c2)cc1OC [Compound S2, magnolin]

>  <value>
121.81

$$$$

----------
System: inflammatory cells in the bronchoalveolar lavage fluid
Assay: Inflammatory cells in bronchoalveolar lavage fluid of the COPD mouse model (cigarette smoke + LPS)
Type: in vivo, C57BL/6N mice
Details: 30 mg/kg p.o., BALF, vs COPD-induced group
Examples of compounds with documented Inhibition rate of inflammatory cell infiltration (%) Total inflammatory cells follow.
quantityKind: Inhibition rate of inflammatory cell infiltration (%) Total inflammatory cells

>  <compound>
COc1ccc([C@H]2OC[C@H]3[C@@H]2CO[C@@H]3c2cc(OC)c(OC)c(OC)c2)cc1OC

>  <value>
30.7 ± 5.3%

$$$$
>  <compound>
COc1ccc([C@H]2OC[C@H]3[C@@H]2CO[C@@H]3c2ccc3c(c2)OCO3)cc1OC [Compound S5, dimethoxyaschantin]

>  <value>
43.2 ± 5.4%

$$$$
>  <compound>
COc1ccc([C@@H]2OC[C@H]3[C@@H]2CO[C@@H]3c2ccc3c(c2)OCO3)cc1OC

>  <value>
34.1 ± 6.1%

$$$$
>  <compound>
COc1cc([C@H]2OC[C@H]3[C@@H]2CO[C@@H]3c2ccc3c(c2)OCO3)cc(OC)c1OC [Compound S6, aschantin]

>  <value>
43.7 ± 4.7%

$$$$
>  <compound>
COc1cc([C@H]2OC[C@H]3[C@@H]2CO[C@@H]3c2cc(OC)c(OC)c(OC)c2)cc(OC)c1OC

>  <value>
43.5 ± 3.4%

$$$$
>  <compound>
COc1ccc([C@H]2OC[C@H]3[C@@H]2CO[C@H]3c2cc(OC)c(OC)c(OC)c2)cc1OC [Compound S4, epimagnolin]

>  <value>
29.1 ± 4.4%

$$$$
>  <compound>
COc1ccc([C@H]2OC[C@H]3[C@@H]2CO[C@@H]3c2ccc(OC)c(OC)c2)cc1OC

>  <value>
54.3 ± 3.5%

$$$$

----------
System: inflammatory cells in the bronchoalveolar lavage fluid
Experiment: Inflammatory cells in bronchoalveolar lavage fluid of the COPD mouse model (cigarette smoke + LPS)
Type: in vivo, C57BL/6N mice
Conditions: 15 mg/kg p.o., BALF, vs COPD-induced group
Examples of compounds with documented Inhibition rate of inflammatory cell infiltration (%) Total inflammatory cells follow.
quantityKind: Inhibition rate of inflammatory cell infiltration (%) Total inflammatory cells

>  <compound>
COc1ccc([C@H]2OC[C@H]3[C@@H]2CO[C@H]3c2cc(OC)c(OC)c(OC)c2)cc1OC [Compound S4, epimagnolin]

>  <experimentalSystem>
inflammatory cells in the bronchoalveolar lavage fluid

>  <resultUnits>
%

>  <value>
14.0

$$$$
>  <compound>
COc1ccc([C@H]2OC[C@H]3[C@@H]2CO[C@@H]3c2ccc(OC)c(OC)c2)cc1OC [Compound S1, dimethylpinoresinol]

>  <experimentalSystem>
inflammatory cells in the bronchoalveolar lavage fluid

>  <resultUnits>
%

>  <value>
42.2

$$$$
>  <compound>
COc1cc([C@H]2OC[C@H]3[C@@H]2CO[C@@H]3c2ccc3c(c2)OCO3)cc(OC)c1OC [Compound S6, aschantin]

>  <experimentalSystem>
inflammatory cells in the bronchoalveolar lavage fluid

>  <resultUnits>
%

>  <value>
42.8

$$$$
>  <compound>
COc1ccc([C@@H]2OC[C@H]3[C@@H]2CO[C@@H]3c2ccc3c(c2)OCO3)cc1OC [Compound S7, fargesin]

>  <experimentalSystem>
inflammatory cells in the bronchoalveolar lavage fluid

>  <resultUnits>
%

>  <value>
44.1

$$$$

Taken from patent US10376553B2.
